Give Max MFI for every item shown.
Target system: T1, cynomolgus CCR8 (cynomolgus, UniProt G7NYJ2 1-355)
T1 construct: whole, on cells
T1 sequence (G7NYJ2 entry or part of it): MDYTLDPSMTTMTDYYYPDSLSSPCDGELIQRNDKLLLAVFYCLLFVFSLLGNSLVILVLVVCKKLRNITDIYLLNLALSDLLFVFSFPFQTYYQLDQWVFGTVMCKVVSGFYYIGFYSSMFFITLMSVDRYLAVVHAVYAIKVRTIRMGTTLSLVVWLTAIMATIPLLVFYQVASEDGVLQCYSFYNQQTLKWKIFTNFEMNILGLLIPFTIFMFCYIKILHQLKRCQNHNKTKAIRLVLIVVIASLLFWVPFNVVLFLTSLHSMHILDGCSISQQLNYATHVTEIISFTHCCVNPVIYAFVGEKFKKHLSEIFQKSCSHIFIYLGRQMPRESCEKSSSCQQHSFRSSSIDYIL
Protocol: FACS on HEK293-cynomolgus CCR8 cells
# output: numeric value plus its unit

Task: Item Hu149-2 (antibody, V domains shown, humanized IgG) VH: EVQLVESGGGLVQPGGSLKLSCAASGFTFNTYAMHWVRQASGKGLEWVGRIRSKSNFYATYYAASVKGRFTISRDDSKNTAYLQMNSLKTEDTAVYYCVRGRDYGSSYAMDYWGQGTLVTVSS VL: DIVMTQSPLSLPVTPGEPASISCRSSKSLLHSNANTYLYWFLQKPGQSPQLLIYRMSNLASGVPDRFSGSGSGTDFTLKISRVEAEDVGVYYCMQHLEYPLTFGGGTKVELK has what recorded Max MFI?
Output: 1550 MFI

Task: Let us now turn to Hu149-3 (antibody, V domains shown, humanized IgG) VH: EVQLVESGGGLVQPGGSLKLSCAASGFTFNTYAMNWVRQASGKGLEWVGRIRSKSNFYATAYAASVKGRFTISRDDSKNTAYLQMNSLKTEDTAVYYCVRGRDYGSSYAMDYWGQGTLVTVSS VL: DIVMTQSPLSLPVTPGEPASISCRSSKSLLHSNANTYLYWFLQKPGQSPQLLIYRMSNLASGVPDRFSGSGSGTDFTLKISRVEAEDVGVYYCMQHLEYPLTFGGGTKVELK
Output: 19900 MFI

Task: Let us now turn to CM149 (antibody, V domains shown, CM149 is not defined in words; also called CM149 HuIgG1; parental antibody CM149) VH: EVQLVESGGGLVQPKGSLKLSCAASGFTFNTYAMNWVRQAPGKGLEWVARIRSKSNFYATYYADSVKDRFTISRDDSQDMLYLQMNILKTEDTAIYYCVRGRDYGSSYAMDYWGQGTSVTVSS VL: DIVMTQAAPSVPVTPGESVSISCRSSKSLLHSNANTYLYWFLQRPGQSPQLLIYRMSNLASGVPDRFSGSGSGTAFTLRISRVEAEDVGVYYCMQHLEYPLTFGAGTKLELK
Output: 18100 MFI

Value source: patent US20250034266A1
